STUDY SYSTEM: MMP-2 (Homo sapiens, UniProt P08253)
Construct: made in house; provided by Dr. Gregory Goldberg, Washington University
Sequence (P08253 110-660): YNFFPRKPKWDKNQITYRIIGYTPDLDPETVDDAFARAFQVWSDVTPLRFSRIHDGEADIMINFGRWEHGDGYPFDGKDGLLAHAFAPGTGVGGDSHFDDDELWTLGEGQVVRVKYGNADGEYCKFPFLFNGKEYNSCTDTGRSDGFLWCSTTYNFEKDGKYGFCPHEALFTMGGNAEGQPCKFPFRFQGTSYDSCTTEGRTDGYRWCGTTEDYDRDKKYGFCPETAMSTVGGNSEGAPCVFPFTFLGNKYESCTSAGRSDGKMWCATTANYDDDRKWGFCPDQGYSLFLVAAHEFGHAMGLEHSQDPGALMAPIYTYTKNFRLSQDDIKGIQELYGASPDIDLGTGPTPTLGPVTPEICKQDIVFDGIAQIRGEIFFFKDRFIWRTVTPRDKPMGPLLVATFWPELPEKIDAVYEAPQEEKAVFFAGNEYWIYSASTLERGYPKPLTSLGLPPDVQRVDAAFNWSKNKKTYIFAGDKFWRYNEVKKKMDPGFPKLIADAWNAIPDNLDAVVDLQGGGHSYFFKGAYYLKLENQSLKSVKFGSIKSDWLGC
ASSAY PROCEDURE: biochemical
CONDITION LABEL: recombinant human MMP-2, MCA peptide substrate 4 μM, pH 7.5, room temperature; read-out: MMP-2 IC50
RECORDED ENDPOINT: IC50 (nM)
Write it as a number; the unit nM goes unstated.

Past entries and their recorded results:
Incoming: What does the record list as IC50 for CC(C)N1CCC(C(=O)NO)(S(=O)(=O)c2ccc(Oc3ccc(OC(F)(F)F)cc3)cc2)CC1 ?
Outgoing: 35

Incoming: What does the record list as IC50 for O=C(NO)C1(S(=O)(=O)c2ccc(N3CC=CCC3)cc2)CCOCC1 ?
Outgoing: 4.5

Incoming: What does the record list as IC50 for O=C(NO)C1(S(=O)(=O)c2ccc(N3CCC(OCc4cccnc4)CC3)cc2)CCOCC1 ?
Outgoing: 700

Incoming: What does the record list as IC50 for CCCN(CCCCC(=O)N1CCC(C(=O)NO)(S(=O)(=O)c2ccc(Oc3ccc(C(F)(F)F)cc3)cc2)CC1)CC1CC1 ?
Outgoing: 0.2

Incoming: What does the record list as IC50 for O=C(NO)C1(S(=O)(=O)c2ccc(N3CCC(c4nc(-c5cccc(C(F)(F)F)c5)no4)CC3)cc2)CCN(C2CC2)CC1 ?
Outgoing: 430

Incoming: What does the record list as IC50 for O=C(NO)C1(S(=O)(=O)c2ccc(N3CCC(c4ccc(Cl)cc4)CC3)cc2)CCOCC1 ?
Outgoing: 2

Incoming: What does the record list as IC50 for O=C(NO)C1(S(=O)(=O)c2ccc(N3CCCN(S(=O)(=O)c4ccc(C(F)(F)F)cc4)CC3)cc2)CCOCC1 ?
Outgoing: 1500

Incoming: What does the record list as IC50 for O=C(NO)C1(S(=O)(=O)c2ccc(N3CCCCCC3)cc2)CCOCC1 ?
Outgoing: 240

Continuing:
Incoming: What does the record list as IC50 for CCCCOC1CCN(c2ccc(S(=O)(=O)C3(C(=O)NO)CCN(C4CC4)CC3)cc2)CC1 ?
Outgoing: 240

Incoming: What does the record list as IC50 for CC(C)CCOc1ccc(COC2CCN(c3ccc(S(=O)(=O)C4(C(=O)NO)CCOCC4)cc3)CC2)cc1 ?
Outgoing: 306

Incoming: What does the record list as IC50 for Cc1ccc(S(=O)(=O)N(C)C2CCN(c3ccc(S(=O)(=O)C4(C(=O)NO)CCOCC4)cc3)CC2)cc1 ?
Outgoing: 780

Incoming: What does the record list as IC50 for COc1cc(OC)cc(OC2CCN(c3ccc(S(=O)(=O)C4(C(=O)NO)CCOCC4)cc3)CC2)c1 ?
Outgoing: 1.5

Incoming: What does the record list as IC50 for O=C(CCCCNCCO)N1CCC(C(=O)NO)(S(=O)(=O)c2ccc(Oc3ccc(C(F)(F)F)cc3)cc2)CC1 ?
Outgoing: 0.2
